# Test system: souris femelles
# METHOD_DESCRIPTION: acute toxicity in the mouse, intraperitoneal
# Assay type: in vivo
# CONDITION_INFO: voie intrapéritonéale, 150 mg/kg; dead mice of the group
# Mortalité en 1 heure per record follows
The answer should be a number; do not append a unit.

{"columns": ["COMPOUND", "VALUE_MEASURED"],
 "data": [
  ["CN(C)CCCN1c2ccccc2C2ON=C(c3ccccc3)C2c2ccccc21 (centres unmarked) [compound 3]", 0],
  ["CN(C)CCCN1c2ccccc2C2C(c3ccccc3)=NN(c3ccccc3)C2c2ccccc21 (centres unmarked) [compound 8]", 1],
  ["CC(CN(C)C)CN1c2ccccc2C2C(c3ccccc3)=NN(c3ccccc3)C2c2ccccc21 (centres unmarked) [compound 9]", 0],
  ["CN(C)CCN1c2ccccc2-c2onc(-c3ccccc3)c2-c2ccccc21 [compound 17]", 0]
]}

With souris femelles as the test system, provide measured Mortalité en 1 heure for this compound: CN(C)CCCN1c2ccccc2-c2onc(-c3ccccc3)c2-c2ccccc21 [compound 18] 0
